- testedSystem: T1, human GPC3-His protein (human, UniProt P51654 25-559)
- T1 construct: Bought protein; also called human GPC3 protein; not shown: His tag
- experiment: ELISA, coated human GPC3, antibody 0.0001 nM
Reported values of OD450 nm for individual entries

{"binder": "F1.3.9 human-murine chimeric antibody (antibody, human IgG1, kappa, V domains shown) VH: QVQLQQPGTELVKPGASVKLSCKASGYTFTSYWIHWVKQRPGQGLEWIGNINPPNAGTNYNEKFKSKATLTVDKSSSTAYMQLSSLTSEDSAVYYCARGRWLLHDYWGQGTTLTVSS VL: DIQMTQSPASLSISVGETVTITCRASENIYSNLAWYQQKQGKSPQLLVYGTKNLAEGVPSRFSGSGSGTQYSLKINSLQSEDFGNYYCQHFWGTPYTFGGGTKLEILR", "OD450 nm (OD450)": 0.1}
{"binder": "F2.39.2 human-murine chimeric antibody (antibody, human IgG1, kappa, V domains shown) VH: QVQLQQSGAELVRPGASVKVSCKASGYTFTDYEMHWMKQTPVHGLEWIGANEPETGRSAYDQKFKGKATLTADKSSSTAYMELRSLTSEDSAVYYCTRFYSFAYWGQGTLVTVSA VL: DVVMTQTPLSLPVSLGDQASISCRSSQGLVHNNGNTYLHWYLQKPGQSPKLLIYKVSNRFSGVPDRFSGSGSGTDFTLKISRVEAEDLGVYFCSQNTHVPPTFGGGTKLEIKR", "OD450 nm (OD450)": 0.1}
{"binder": "F1.57.21 human-murine chimeric antibody (antibody, human IgG1, kappa, V domains shown) VH: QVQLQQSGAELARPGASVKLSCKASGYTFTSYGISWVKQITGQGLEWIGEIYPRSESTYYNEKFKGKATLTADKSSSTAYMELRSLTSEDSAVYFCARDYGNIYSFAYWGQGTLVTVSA VL: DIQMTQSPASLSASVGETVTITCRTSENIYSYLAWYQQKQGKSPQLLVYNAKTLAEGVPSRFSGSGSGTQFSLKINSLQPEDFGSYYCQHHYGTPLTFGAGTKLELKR", "OD450 nm (OD450)": 0.08}
{"binder": "F1.120.16 human-murine chimeric antibody (antibody, human IgG1, kappa, V domains shown) VH: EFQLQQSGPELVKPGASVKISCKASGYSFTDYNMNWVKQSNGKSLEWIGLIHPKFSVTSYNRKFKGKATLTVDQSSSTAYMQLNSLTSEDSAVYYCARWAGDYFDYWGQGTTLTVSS VL: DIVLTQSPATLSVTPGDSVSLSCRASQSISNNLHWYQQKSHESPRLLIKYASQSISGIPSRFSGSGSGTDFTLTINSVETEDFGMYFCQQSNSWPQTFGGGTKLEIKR", "OD450 nm (OD450)": 0.11}
{"binder": "F1.118.4 human-murine chimeric antibody (antibody, human IgG1, kappa, V domains shown) VH: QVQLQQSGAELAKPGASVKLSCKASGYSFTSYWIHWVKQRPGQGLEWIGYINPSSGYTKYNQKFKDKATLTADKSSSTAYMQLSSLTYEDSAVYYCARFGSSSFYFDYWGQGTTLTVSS VL: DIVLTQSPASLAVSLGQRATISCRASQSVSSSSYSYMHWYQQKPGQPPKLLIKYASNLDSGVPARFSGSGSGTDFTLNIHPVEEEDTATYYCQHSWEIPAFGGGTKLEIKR", "OD450 nm (OD450)": 0.1}
{"binder": "F1.83.6 human-murine chimeric antibody (antibody, human IgG1, kappa, V domains shown) VH: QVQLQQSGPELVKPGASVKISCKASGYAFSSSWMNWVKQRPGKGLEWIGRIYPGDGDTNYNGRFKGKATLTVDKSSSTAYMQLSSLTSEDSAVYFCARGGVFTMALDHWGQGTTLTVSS VL: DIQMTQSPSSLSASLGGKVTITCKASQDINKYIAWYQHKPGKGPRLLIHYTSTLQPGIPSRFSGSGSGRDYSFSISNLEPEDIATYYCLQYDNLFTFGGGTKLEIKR", "OD450 nm (OD450)": 0.08}
{"binder": "F2.55.11 human-murine chimeric antibody (antibody, human IgG1, kappa, V domains shown) VH: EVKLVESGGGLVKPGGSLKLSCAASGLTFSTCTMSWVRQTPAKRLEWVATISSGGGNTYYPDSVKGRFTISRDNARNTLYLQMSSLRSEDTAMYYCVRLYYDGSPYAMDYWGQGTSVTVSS VL: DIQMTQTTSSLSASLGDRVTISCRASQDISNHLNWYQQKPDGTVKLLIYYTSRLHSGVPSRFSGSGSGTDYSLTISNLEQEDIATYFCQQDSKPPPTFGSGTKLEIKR", "OD450 nm (OD450)": 0.11}
{"binder": "F2.152.3 human-murine chimeric antibody (antibody, human IgG1, kappa, V domains shown) VH: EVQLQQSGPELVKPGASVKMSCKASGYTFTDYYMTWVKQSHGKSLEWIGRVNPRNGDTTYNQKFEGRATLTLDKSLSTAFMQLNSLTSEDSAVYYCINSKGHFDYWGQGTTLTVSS VL: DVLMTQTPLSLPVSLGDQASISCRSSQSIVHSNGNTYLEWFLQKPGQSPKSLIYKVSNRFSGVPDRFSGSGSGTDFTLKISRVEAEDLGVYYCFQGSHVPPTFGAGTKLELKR", "OD450 nm (OD450)": 0.1}
{"binder": "F2.92.1 human-murine chimeric antibody (antibody, human IgG1, kappa, V domains shown) VH: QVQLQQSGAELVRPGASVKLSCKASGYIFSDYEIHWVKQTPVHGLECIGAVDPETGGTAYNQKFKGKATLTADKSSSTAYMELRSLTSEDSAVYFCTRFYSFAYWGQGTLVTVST VL: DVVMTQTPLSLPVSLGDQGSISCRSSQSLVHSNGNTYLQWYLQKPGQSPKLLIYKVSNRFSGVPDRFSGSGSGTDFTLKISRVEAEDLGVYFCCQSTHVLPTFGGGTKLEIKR", "OD450 nm (OD450)": 0.11}
{"binder": "F2.23.8 human-murine chimeric antibody (antibody, human IgG1, kappa, V domains shown) VH: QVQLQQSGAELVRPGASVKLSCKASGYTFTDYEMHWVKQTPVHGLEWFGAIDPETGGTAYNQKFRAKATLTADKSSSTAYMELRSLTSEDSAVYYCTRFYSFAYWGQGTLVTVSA VL: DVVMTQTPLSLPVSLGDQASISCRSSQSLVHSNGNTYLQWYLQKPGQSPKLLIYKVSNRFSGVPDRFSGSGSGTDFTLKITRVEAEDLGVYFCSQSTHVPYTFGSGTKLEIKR", "OD450 nm (OD450)": 0.1}
